procedure summary: protein stability index of a GFP-peptide fusion (yeast GPS) (PSI 1-4); higher = more stable; sorted into four equal gates, so the index is relative within each strain
condition set: san1∆
Exercise: for every item that follows, state its recorded protein stability index.
One number for each entry.

Consider the following illustrative entries.
{"chain": "LLLSRVRADDLSTRFNI [RRP43]", "protein stability index": 3.02}
{"chain": "NKQIEILTDLVNYRHFK [ITC1]", "protein stability index": 3.03}

Now, please, on to the next sequence.
In: I am curious: what protein stability index value has been reported for EVVEVQEETVVEQTAEV [RPS12] ?
Out: 2.97

====

procedure summary: protein stability index of a GFP-peptide fusion (yeast GPS) (PSI 1-4); higher = more stable; sorted into four equal gates, so the index is relative within each strain
condition set: doa10∆
endpoint label: protein stability index
One number for each entry.

Below, 5 sequences whose answers are already recorded.
{"chain": "VKKILPLYARYINVNPQ [ECM29]", "protein stability index": 2.43}
{"chain": "GRETILSNFNADINLEE [SIR3]", "protein stability index": 3.14}
{"chain": "SDDIISQVDPITLFVLV [FAS2]", "protein stability index": 1.19}
{"chain": "TKFQTTDRESYPRLQDP [YCS4]", "protein stability index": 3}
{"chain": "SQIFDQLKDMQTIEMIT [SRB8]", "protein stability index": 2.78}

# batch size: 5; output protein stability index per entry
1. LLCDKAQKNTQSYGGRP [PRE5]
2. WSFDLPEMSNLYRLSTP [PRP8]
3. AFGVSVAFLDNDLGKFI [RPN7]
4. ETKTKKEKIKGLQDEIM [SMC4]
5. ITSNHKSSVPGSAELRN [RPN3]

Out:
1. 3.17
2. 2.71
3. 3.17
4. 3.12
5. 2.69

Source: the supplement of paper PMC9732359
